molecular target: soybean LOX (Glycine max, UniProt P08170); construct: purchased Sigma-Aldrich and Fluka; experiment: Inhibition of soybean LOX; assay type: biochemical; settings: read-out: Soybean LOX % inhibition (100 μΜ)
Sequence (P08170 whole entry): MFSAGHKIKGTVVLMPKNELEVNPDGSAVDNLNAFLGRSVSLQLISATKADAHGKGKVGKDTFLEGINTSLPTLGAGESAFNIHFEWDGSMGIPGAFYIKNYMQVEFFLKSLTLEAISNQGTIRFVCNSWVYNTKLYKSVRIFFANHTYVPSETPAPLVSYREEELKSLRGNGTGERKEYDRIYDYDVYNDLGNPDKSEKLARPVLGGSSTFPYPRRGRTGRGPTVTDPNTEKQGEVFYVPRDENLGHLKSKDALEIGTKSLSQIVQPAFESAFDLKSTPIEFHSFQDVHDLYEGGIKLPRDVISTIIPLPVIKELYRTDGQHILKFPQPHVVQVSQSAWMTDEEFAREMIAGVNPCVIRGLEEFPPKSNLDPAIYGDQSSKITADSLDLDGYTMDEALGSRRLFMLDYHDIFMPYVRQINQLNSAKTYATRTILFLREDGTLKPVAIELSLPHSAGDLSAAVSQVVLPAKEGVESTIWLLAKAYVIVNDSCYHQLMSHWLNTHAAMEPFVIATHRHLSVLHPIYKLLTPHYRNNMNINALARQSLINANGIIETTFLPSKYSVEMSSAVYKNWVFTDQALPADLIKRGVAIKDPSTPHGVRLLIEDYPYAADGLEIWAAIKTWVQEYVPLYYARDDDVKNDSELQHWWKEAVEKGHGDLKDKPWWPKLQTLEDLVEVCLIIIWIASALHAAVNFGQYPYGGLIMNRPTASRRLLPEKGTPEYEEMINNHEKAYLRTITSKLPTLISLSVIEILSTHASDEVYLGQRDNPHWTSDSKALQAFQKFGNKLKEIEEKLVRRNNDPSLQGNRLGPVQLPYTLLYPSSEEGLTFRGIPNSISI
Assign Yes whenever inhibition at 100 µM does not fall below 30%; assign No whenever it does.

[[record]]
item_smiles = "Cc1c(-c2ccc(Cl)cc2)c(=O)oc2cccc(O)c12"
tested_on = "soybean LOX (Glycine max, UniProt P08170)"
label_class = "No"

[[record]]
item_smiles = "Cc1c(-c2ccc(F)cc2)c(=O)oc2cccc(O)c12"
tested_on = "soybean LOX (Glycine max, UniProt P08170)"
label_class = "Yes"

[[record]]
item_smiles = "CC(=O)Oc1ccc(-c2c(C)c3cc(Br)ccc3oc2=O)cc1OC(C)=O"
tested_on = "soybean LOX (Glycine max, UniProt P08170)"
label_class = "Yes"

[[record]]
item_smiles = "Cc1c(-c2ccc(O)cc2)c(=O)oc2ccc(Cl)cc12"
tested_on = "soybean LOX (Glycine max, UniProt P08170)"
label_class = "Yes"

[[record]]
item_smiles = "Cc1c(-c2cccc(Cl)c2)c(=O)oc2cccc(O)c12"
tested_on = "soybean LOX (Glycine max, UniProt P08170)"
label_class = "Yes"

[[record]]
item_smiles = "CC(=O)Oc1ccc(-c2c(C)c3cc(Br)ccc3oc2=O)cc1"
tested_on = "soybean LOX (Glycine max, UniProt P08170)"
label_class = "Yes"

[[record]]
item_smiles = "Cc1c(-c2ccc(O)cc2)c(=O)oc2ccc(Br)cc12"
tested_on = "soybean LOX (Glycine max, UniProt P08170)"
label_class = "No"

[[record]]
item_smiles = "CC(=O)Oc1ccc(-c2c(C)c3ccccc3oc2=O)cc1"
tested_on = "soybean LOX (Glycine max, UniProt P08170)"
label_class = "Yes"

[[record]]
item_smiles = "CC(=O)Oc1ccc(-c2c(C)c3ccccc3oc2=O)cc1OC(C)=O"
tested_on = "soybean LOX (Glycine max, UniProt P08170)"
label_class = "Yes"

[[record]]
item_smiles = "CC(=O)Oc1cccc2oc(=O)c(-c3ccc(F)cc3)c(C)c12"
tested_on = "soybean LOX (Glycine max, UniProt P08170)"
label_class = "No"

[[record]]
item_smiles = "CC(=O)Oc1cccc2oc(=O)c(-c3ccccc3Cl)c(C)c12"
tested_on = "soybean LOX (Glycine max, UniProt P08170)"
label_class = "No"

[[record]]
item_smiles = "CC(=O)Oc1cccc2oc(=O)c(-c3ccccc3F)c(C)c12"
tested_on = "soybean LOX (Glycine max, UniProt P08170)"
label_class = "No"

[[record]]
item_smiles = "Cc1c(-c2ccc(O)cc2)c(=O)oc2ccccc12"
tested_on = "soybean LOX (Glycine max, UniProt P08170)"
label_class = "No"

[[record]]
item_smiles = "Cc1c(-c2ccc(O)cc2)c(=O)oc2c(Br)cc(Br)cc12"
tested_on = "soybean LOX (Glycine max, UniProt P08170)"
label_class = "Yes"

